Test: Pharmacokinetics of probe substrates in rats with or without poziotinib pre-treatment
Conditions: male, Sprague-Dawley, rat, in vivo, po, 10 mg/kg, Vz/F, Control group: oral probe cocktail only (10 mg/kg; tolbutamide 1 mg/kg), rats, n = 6
test_readout: Vd/F (L/kg)
Quick reminder: number only, in L/kg, skip the unit.

Cc1ncc2n1-c1ccc(Cl)cc1C(c1ccccc1F)=NC2 [Midazolam] has a reported Vd/F of 18.6

###

Assay: Pharmacokinetics of probe substrates in rats with or without poziotinib pre-treatment
Conditions: male, Sprague-Dawley, rat, plasma, po, Vz/F, Control group: oral probe cocktail only (10 mg/kg; tolbutamide 1 mg/kg), rats, n = 6
test_readout: Vd/F (L/kg)
Field: numeric (L/kg). Do not append units.

The recorded Vd/F for CCCCNC(=O)NS(=O)(=O)c1ccc(C)cc1 [Tolbutamide] is 0.27

Where do these numbers come from? They come from paper PMC7970697.
